Test system: 786-O
Assay: Euclidean distance of Cell Painting phenotypic profile (signed KS, 77 features) to DMSO centroid (dimensionless distance); 5 or 10 uM (library dependent); higher = stronger phenotypic change vs DMSO (phenoactivity)
Details: 48 h
Where a name gives a salt, the structure may show the parent alone.
measured-attribute: Euclidean distance
One number for each entry.

Provide each entry's Euclidean distance from the list below.
1. CN(C)C(=O)Nc1cccc(-c2ccc(N(C)C)cc2)c1
2. CCN(CC)Cc1ccc2cc(COC(=O)Nc3ccc(C(=O)NO)cc3)ccc2c1
3. COc1cc2c(cc1-c1c(C)noc1C)ncc1[nH]c(=O)n([C@H](C)c3ccccn3)c12
4. O=S(=O)(O)c1cc(O)ccc1O [Ethamsylate]
5. NC[C@H]1O[C@H](O[C@H]2[C@H](O[C@@H]3O[C@H](CO)[C@@H](O)[C@H]3O)[C@@H](O)[C@H](N)C[C@@H]2N)[C@H](N)[C@@H](O)[C@@H]1O [Ribostamycin Sulfate]
6. CC(=O)O[C@]1(C(C)=O)CC[C@H]2[C@@H]3C=C(Cl)C4=CC(=O)CC[C@]4(C)[C@H]3CC[C@@]21C [Chlormadinone acetate]
7. CC(C)N1CCN(c2ccc(Nc3ncc4cc5n(c4n3)C3(CCCCC3)CNC5=O)nc2)CC1

[out]
1. 1.31
2. 2.68
3. 2.62
4. 0.716
5. 1.45
6. 1.27
7. 3.19

[in] Request the reported Euclidean distance associated with CC(=O)OCC(=O)[C@@]12OC(C)(C)O[C@@H]1C[C@H]1[C@@H]3C[C@H](F)C4=CC(=O)C=C[C@]4(C)[C@@]3(F)[C@@H](O)C[C@@]12C [Fluocinonide]
[out] 1.34

###

Tested on: DU145
Assay: Euclidean distance of Cell Painting phenotypic profile (signed KS, 77 features) to DMSO centroid (dimensionless distance); 5 or 10 uM (library dependent); higher = stronger phenotypic change vs DMSO (phenoactivity)
Details: 48 h
Where a name gives a salt, the structure may show the parent alone.
Label fulfilled for high-side Euclidean distance (at or above 2) and not fulfilled for low-side Euclidean distance (below it).

Illustrative cases are given below, each with its answer.
# compound, class-assignment
measured = [
    ("COc1cc2c(cc1OC)[C@@H]1Cc3ccc(OC)c(OC)c3CN1CC2 [Rotundine]", "not fulfilled"),
    ("C[C@]12CC[C@@H]3c4ccc(O)cc4CC[C@H]3[C@@H]1CC[C@@H]2O [Estradiol]", "fulfilled"),
    ("CNC(=O)c1ccc2cc([C@@]3(O)CCn4cncc43)ccc2c1 [TAK-700 (Orteronel)]", "not fulfilled"),
]

[in] # bool: Euclidean distance of CC(C)C[C@H](NC(=O)[C@@H](COC(C)(C)C)NC(=O)[C@H](Cc1ccc(O)cc1)NC(=O)[C@H](CO)NC(=O)[C@H](Cc1c[nH]c2ccccc12)NC(=O)[C@H](Cc1cnc[nH]1)NC(=O)[C@@H]1CCC(=O)N1)C(=O)N[C@@H](CCCNC(=N)N)C(=O)N1CCC[C@H]1C(=O)NNC(N)=O [Goserelin Acetate] >= 2
[out] fulfilled

[in] # bool: Euclidean distance of NC12CC3CC(CC(C3)C1)C2 [Amantadine HCl] >= 2
[out] not fulfilled

[in] # bool: Euclidean distance of CC(=O)OCC(=O)[C@H]1CC[C@H]2[C@@H]3CCC4=CC(=O)CC[C@]4(C)[C@H]3CC[C@]12C [Deoxycorticosterone acetate] >= 2
[out] not fulfilled

[in] # bool: Euclidean distance of Cc1c(-c2ccccc2)oc2c(C(=O)OCCN3CCCCC3)cccc2c1=O [Flavoxate HCl] >= 2
[out] not fulfilled

###

Tested on: OVCAR4
Experiment: Euclidean distance of Cell Painting phenotypic profile (signed KS, 77 features) to DMSO centroid (dimensionless distance); 5 or 10 uM (library dependent); higher = stronger phenotypic change vs DMSO (phenoactivity)
Settings: 48 h
Where a name gives a salt, the structure may show the parent alone.
Can you tell me Euclidean distance for the items I'm about to list?
One number for each entry.

Provide each entry's Euclidean distance from the list below.
1. NC(=O)[C@@H]1CCCN1C(=O)[C@H](Cc1c[nH]cn1)NC(=O)[C@@H]1CCC(=O)N1
2. COc1cc2nccc(Oc3ccc(NC(=O)C4(C(=O)Nc5ccc(F)cc5)CC4)cc3)c2cc1OC [Cabozantinib malate (XL184)]
3. O=C1CCc2ccc(OCCCCN3CCN(c4cccc(Cl)c4Cl)CC3)cc2N1
4. Nc1ccc(S(=O)(=O)Nc2cnc3ccccc3n2)cc1 [Sulfaquinoxaline sodium]
5. CN[C@@H](C)C(=O)N[C@H](C(=O)N1CCC[C@H]1c1nc(C(=O)c2ccc(F)cc2)cs1)C1CCCCC1

[out]
0.947
2.25
1.21
0.684
2.13

Provide each entry's Euclidean distance from the list below.
1. CC(C)NC[C@H](O)COc1ccc(CCOCC2CC2)cc1 [Levobetaxolol HCl]
2. Cc1cnc(C(=O)NCCc2ccc(S(=O)(=O)NC(=O)NC3CCCCC3)cc2)cn1 [Glipizide]
3. COc1cc(OC)cc(N(CCNC(C)C)c2ccc3ncc(-c4cnn(C)c4)nc3c2)c1
4. CCOC(=O)[C@@H](N)Cc1ccc(-c2cc(O[C@H](c3ccc(Cl)cc3-n3ccc(C)n3)C(F)(F)F)nc(N)n2)cc1 [Telotristat Etiprate (LX 1606 Hippurate)]

[out]
[0.877, 1.36, 3.1, 1.3]

###

Tested on: HEPG2
Assay: Euclidean distance of Cell Painting phenotypic profile (signed KS, 77 features) to DMSO centroid (dimensionless distance); 5 or 10 uM (library dependent); higher = stronger phenotypic change vs DMSO (phenoactivity)
Conditions: 48 h
measured-attribute: Euclidean distance

Below, 10 molecules whose answers are already recorded.
# molecule, measured-attribute, meas-value
data = [
    ("CCN1CCN(c2cc3c(cc2F)c(=O)c(C(=O)O)cn3C2CC2)CC1 [Enrofloxacin]", "Euclidean distance", 0.992),
    ("O=C(c1ccc(F)cc1)C1CCN(CCn2c(=O)[nH]c3ccccc3c2=O)CC1 [Ketanserin]", "Euclidean distance", 0.883),
    ("COc1c(C)c2c(c(O)c1C/C=C(\\C)CCC(=O)O)C(=O)OC2 [Mycophenolic acid]", "Euclidean distance", 2.74),
    ("C/C(=C\\C(=O)Nc1ccccc1C(=O)O)c1ccc2ccccc2c1", "Euclidean distance", 0.714),
    ("O=C1NC(=O)/C(=C/c2ccc3nccc(-c4ccncc4)c3c2)S1", "Euclidean distance", 0.698),
    ("Cc1ccc(F)c(NC(=O)Nc2ccc(-c3cccc4[nH]nc(N)c34)cc2)c1 [Linifanib (ABT-869)]", "Euclidean distance", 4.87),
    ("Cc1c(C(N)=O)cc([N+](=O)[O-])cc1[N+](=O)[O-] [Dinitolmide]", "Euclidean distance", 0.831),
    ("CC(=O)Nc1ncc([N+](=O)[O-])s1 [Nithiamide]", "Euclidean distance", 2.08),
    ("OB1OCc2cc(F)ccc21 [Tavaborole (AN-2690)]", "Euclidean distance", 0.354),
    ("O=C(CCCCCCNC(=O)c1cnc(N(c2ccccc2)c2ccccc2Cl)nc1)NO [Citarinostat (ACY-241)]", "Euclidean distance", 2.52),
]

Provide each entry's Euclidean distance from the list below.
1. Cc1c(C)c2c(c(C)c1O)CCC(C)(COc1ccc(CC3SC(=O)NC3=O)cc1)O2 (stereo not drawn) [Troglitazone (CS-045)]
2. C=C1C(=O)O[C@@H]2/C=C(\C)CC/C=C(\C)CC[C@@H]12 [Costunolide]
3. CCCCCCCC(=O)N[C@H](CN1CCCC1)[C@H](O)c1ccc2c(c1)OCCO2 [Eliglustat]
4. CNC(=O)CN(CCN(CCN(CC(=O)[O-])CC(=O)NC)CC(=O)[O-])CC(=O)[O-].O.[Gd+3] [Gadodiamide Hydrate]

[out]
0.876
1.29
1.2
0.469

###

System: HEPG2
Test: Euclidean distance of Cell Painting phenotypic profile (signed KS, 77 features) to DMSO centroid (dimensionless distance); 5 or 10 uM (library dependent); higher = stronger phenotypic change vs DMSO (phenoactivity)
Details: 48 h
Where a name gives a salt, the structure may show the parent alone.
Can you tell me Euclidean distance for the items I'm about to list?

Below, 8 compounds whose answers are already recorded.
# compound, study-target, Euclidean distance
records = [
    ("CN1CCC[C@@H]1Cc1c[nH]c2ccc(CCS(=O)(=O)c3ccccc3)cc12", "HEPG2", 0.778),
    ("C[C@H]1c2cccc(O)c2C(=O)C2=C(O)[C@]3(O)C(=O)C(C(N)=O)=C(O)[C@@H](N(C)C)[C@@H]3[C@@H](O)[C@@H]21", "HEPG2", 0.564),
    ("N#Cc1ccc(C2CCCc3cncn32)cc1 (stereo unspecified)", "HEPG2", 0.631),
    ("COc1cccc(-c2c(C)n(Cc3c(F)cccc3C(F)(F)F)c(=O)n(C[C@H](NCCCC(=O)O)c3ccccc3)c2=O)c1F [Elagolix Sodium]", "HEPG2", 0.728),
    ("Cc1cccc(C)c1OCC(=O)N[C@@H](Cc1ccccc1)[C@@H](O)C[C@H](Cc1ccccc1)NC(=O)[C@H](C(C)C)N1CCCNC1=O", "HEPG2", 0.896),
    ("CC1=C(C(=O)O)N2C(=O)[C@@H](NC(=O)[C@H](N)C3=CCC=CC3)[C@H]2SC1 [Cefradine]", "HEPG2", 0.578),
    ("Nc1n[n+]([O-])c2ccccc2[n+]1[O-]", "HEPG2", 2.21),
    ("CC(C)(C(=O)c1cccnc1)c1cccnc1", "HEPG2", 0.932),
]

Provide each entry's Euclidean distance from the list below.
1. C#C[C@]1(O)CC[C@H]2[C@@H]3CCc4cc(OC5CCCC5)ccc4[C@H]3CC[C@@]21C
2. COc1ccc(/C=C\c2cc(OC)c(OC)c(OC)c2)cc1O
3. CSc1ccc(C(=O)/C=C/c2cc(C)c(OC(C)(C)C(=O)O)c(C)c2)cc1
4. O=C(OCC(O)CO)c1ccccc1Nc1ccnc2cc(Cl)ccc12 (stereo unspecified) [Glafenine HCl]
5. Cc1cccc(-c2nn3c(c2-c2ccnc4ccc(C(N)=O)cc24)CCC3)n1

[out]
1: 0.902; 2: 4.14; 3: 0.747; 4: 0.968; 5: 1.04
